# System: RARg:RXRa (NR concentration 270 nM, RXRa partner concentration 90 nM)
# RUN DESCRIPTION: PBM binding z-score (relative to random genomic background probes); higher = stronger binding; sequences stand for … in GC…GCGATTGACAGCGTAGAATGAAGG
PBM binding z-score below 1 gives No; PBM binding z-score at or above it gives Yes.

SEQ | DISCRETE LABEL
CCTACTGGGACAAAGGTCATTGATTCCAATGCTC | Yes
CACCCTAGGTCAGGGCCAGTATAGGAGGAACGTT | Yes

PBM binding z-score >= 1 for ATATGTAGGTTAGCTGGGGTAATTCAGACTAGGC ?
No

Form field: PBM binding z-score at least 1? Entry: TCATATAGGTAATTGCTAGGTGAAAGTCCGATCT
No

Can TAGCCTAGGTCGTTGGGCCAGTATAGTACGCATC be said to have PBM binding z-score at or above 1?
No

Determine whether measured PBM binding z-score meets or exceeds 1 for TCTTGTAGATCCAGCAGGTTAAGAAAGCCTGAGT
No

# bool: PBM binding z-score of GGAACGAGGGCAAGTTGAAAGCAGAGTTTGATGG >= 1
Yes

Reported PBM binding z-score reaches at least 1 for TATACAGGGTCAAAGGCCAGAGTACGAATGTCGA ?
Yes

====

# System: RXRa homodimer (NR concentration 180 nM)
# RUN DESCRIPTION: PBM binding z-score (relative to random genomic background probes); higher = stronger binding; sequences stand for … in GC…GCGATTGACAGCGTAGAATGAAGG
Measured PBM binding z-score accompanies every entry in the list below.
Please give the numeric answer without any surrounding text.

Field: example entries. Status: answers known.
SEQ | PBM binding z-score
TAGCCTAGGTCATTGGGCCAGTACAGTACGCATC | 3.3
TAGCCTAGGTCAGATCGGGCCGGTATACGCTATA | 0.992
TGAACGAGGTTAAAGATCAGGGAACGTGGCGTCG | 3.89
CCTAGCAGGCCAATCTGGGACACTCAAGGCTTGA | -0.458
CCGACTGGGGCAGAAAGGGTACCATACCATCCGG | 0.143

Form: sequence = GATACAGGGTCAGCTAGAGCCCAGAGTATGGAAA ; PBM binding z-score = 4.08

response.value for TCGAGTAGGTTACCCATGGGGCATTCAGCTTTCT (field: PBM binding z-score) = 0.689

Input AGTCAAAGTTCAGGACGAGGTAACGTCAAGCACG . Output PBM binding z-score: 3.29

====

# Test system: LXRb homodimer (NR concentration 270 nM)
# RUN DESCRIPTION: PBM binding z-score (relative to random genomic background probes); higher = stronger binding; sequences stand for … in GC…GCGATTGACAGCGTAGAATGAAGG
RECORDED METRIC: PBM binding z-score
Answer using only a numeral; do not append any unit.

Solved entries:
SEQ | RECORDED METRIC | OBSERVED MEASUREMENT
CCTATTAGTTGACCATAAGGTCAACCGAAGCTCG | PBM binding z-score | 1.73
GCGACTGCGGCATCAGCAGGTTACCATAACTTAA | PBM binding z-score | -1.12
CAAACTAGGTTACGAAAGGTCAAAGTCGAATGAC | PBM binding z-score | 2.88
TCTTGTAGAACAGCAGGTTAAGAAAGCTGGCCAA | PBM binding z-score | -0.898

Short answer on LXRb homodimer (NR concentration 270 nM) for GTACCAAAGTGAATAGGTCGTTGATGAGTAGGCG , PBM binding z-score: -0.573

Field PBM binding z-score (LXRb homodimer (NR concentration 270 nM)), entry TCTAGTTGGTCAACGGTCACACACTCGAAATGCG : 0.0272

====

Parameter PBM binding z-score: see the listing below.
# Tested on: THRa homodimer (NR concentration 90 nM)
# RUN DESCRIPTION: PBM binding z-score (relative to random genomic background probes); higher = stronger binding; sequences stand for … in GC…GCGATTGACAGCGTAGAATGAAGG
Lab note: record just the number, no unit beside it.

The value of PBM binding z-score measured for the sequence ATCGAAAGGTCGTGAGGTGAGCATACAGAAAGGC turned out to be 1.68

// sample AGTCAAAGTTCAGAACGAGGTAACGTAAAGCACG , its PBM binding z-score was 0.7

====

# System: VDR:RXRa (NR concentration 270 nM, RXRa partner concentration 90 nM)
# RUN DESCRIPTION: PBM binding z-score (relative to random genomic background probes); higher = stronger binding; sequences stand for … in GC…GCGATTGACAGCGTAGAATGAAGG
RECORDED METRIC: PBM binding z-score
API doc: respond with a numeric literal and nothing else, no unit.

SEQ | OBSERVED MEASUREMENT
GCGACTGTGGCAAAGCAGGTTACCATAAGGTTGG | -0.352
GCGAATGGGGCATCAGCAGGTTACCATAACTTAA | -0.212
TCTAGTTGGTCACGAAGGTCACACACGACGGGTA | 4.98

Lookup result for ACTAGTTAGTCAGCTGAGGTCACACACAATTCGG ; measured PBM binding z-score: 4.19

According to the records, this sequence TGTATTAGTTGAAGGGCAACCGACGAGTCCGTTT displays PBM binding z-score of 0.926

Per the records, this sequence ( TCTAGTTGCTCACGGAGGTCACACACGACGGGTA ) has PBM binding z-score equal to 3.64

Reported PBM binding z-score for GTACCAATGTGAATAGGTCGTTGATGAGTAGGCG was -0.000523

Data point: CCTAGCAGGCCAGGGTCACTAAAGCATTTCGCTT ; PBM binding z-score = 2.08

// recorded PBM binding z-score for AGTCAAAGTTCACTAGGTAACGTACGATTCAGCT : 4.24

Form: sequence = TCATATAGATAAATGCTAGGTGAAAGTCCGATCT ; PBM binding z-score = 0.736

====

# reported PBM binding z-score; entries follow
# Tested on: RARa homodimer (NR concentration 270 nM)
# RUN DESCRIPTION: PBM binding z-score (relative to random genomic background probes); higher = stronger binding; sequences stand for … in GC…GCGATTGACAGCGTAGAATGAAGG
// no unit, no text: just the number

SEQ | STUDY SYSTEM | OBSERVED MEASUREMENT
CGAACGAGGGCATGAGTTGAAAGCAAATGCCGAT | RARa homodimer (NR concentration 270 nM) | -0.757
TCTAGGTGGTCACGGAGGTCACACACGACGGGTA | RARa homodimer (NR concentration 270 nM) | 1.02
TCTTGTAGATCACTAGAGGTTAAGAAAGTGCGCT | RARa homodimer (NR concentration 270 nM) | 0.205

Value of PBM binding z-score reported for the sequence CCTTATGGGTCACGAGGTTATAGCACGACGAGCG is 0.87

For this sequence ( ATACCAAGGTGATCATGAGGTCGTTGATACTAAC ), measured PBM binding z-score is 0.136

# PBM binding z-score (sequence: CGTCCAATGTCAAAGGTCAGTGAAGAGATGACGG ) is 2

Reported PBM binding z-score of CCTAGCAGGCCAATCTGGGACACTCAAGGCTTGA : -0.862

// sample CATACAGGGTCAGCTAGGCCAGCGTAGGGACGGC , its PBM binding z-score was 0.0243

====

# System: PPARg homodimer (NR concentration 180 nM)
# RUN DESCRIPTION: PBM binding z-score (relative to random genomic background probes); higher = stronger binding; sequences stand for … in GC…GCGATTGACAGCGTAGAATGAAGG
// PBM binding z-score lookup, one value per entry
I'd appreciate a reply containing only the number, no unit.

Previously resolved entries follow.
SEQ | RECORDED METRIC | OBSERVED MEASUREMENT
CTACCAAGGTGCACAAGGTCGTTGATTACTATTC | PBM binding z-score | 0.705
CGACCTAGGTCAAGGACAGTGAATCTCCGCACGC | PBM binding z-score | 2.36
CCGACTGGGGCAAGTTTACCATAACGCACAGCCA | PBM binding z-score | 0.332

sequence CCGGCTGGGGCAAAGGTTACCATACTCAGTACGA , PBM binding z-score observed: 1.1

Reported PBM binding z-score ( CCAGACAGGAGAAAGGTAACTCAGTCTGGTACGC ) = 0.229

GET /value?item= TAGCCTAGGTCATTGGTCCAGTATAGTACGCATC &field=PBM binding z-score returns 1.51

====

Below, each of the sequences is paired with its reported PBM binding z-score value.
# Test system: PPARg homodimer (NR concentration 180 nM)
# RUN DESCRIPTION: PBM binding z-score (relative to random genomic background probes); higher = stronger binding; sequences stand for … in GC…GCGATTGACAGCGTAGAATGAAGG
Would you mind answering with just the numeric figure?

SEQ | PBM binding z-score
ACTTACGGGTCAACGAGGTTAGAGCACGCGTATA | 2.64
AGAATGAGGTTGCCAAAGATCAGGGAAACGCTTG | -0.291
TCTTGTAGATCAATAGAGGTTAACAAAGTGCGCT | 0.466
CCTACTGGGCCACGAAAGGTCATTGAATCAGTGA | 2.53
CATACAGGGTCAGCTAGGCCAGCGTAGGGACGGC | 1.25
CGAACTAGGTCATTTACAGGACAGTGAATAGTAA | 2.35
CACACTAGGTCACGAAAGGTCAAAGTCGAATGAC | 5.51
GATACAGGGTTAGCTAGAGGCCAGAGTATGGAAA | 0.107

Data point: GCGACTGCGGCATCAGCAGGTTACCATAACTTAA ; PBM binding z-score = -0.378

Record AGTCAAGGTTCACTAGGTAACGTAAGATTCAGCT , field PBM binding z-score: 1.04

TCTTGTTGGTCAAAGGTCACACACTCGAAATGCG yielded PBM binding z-score of 4.88

Given item AGAATGAGGTTTTTAAGATCAGGGAATTGCGGTC , the value recorded as its PBM binding z-score is -0.582

Values were extracted from the supplement of paper PMC6555819.
